Assay: NCI Yeast Anticancer Drug Screen. Data for the rad50 strain (AID 155);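 further: 0% = growth of vehicle-only cultures of the same strain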
Details: S. cerevisiae rad50 strain growth inhibition; at 33.0 µM; stronger effect = higher value
Compounds without any hit were thinned out: in the full panel of roughly 79,000, 15% have a hit.
Catalogue of growth inhibition values
# number only, unit % dropped from output

c1ccc2c(c1)sc1nc3ccncc3nc12: 76
Cc1ccc(Cl)c2[nH]c(-c3ccccc3)cc(=O)c12: 0
CC(C)NC(=O)OCc1c(COC(=O)NC(C)C)c(-c2ccc(Cl)c(Cl)c2)n2c1CCC2: 1
CC(=O)Cc1ccc[cH-]1.[Fe+2].c1cc[cH-]c1: 22
O=C(OCCN1CCCCCC1)C(c1ccsc1)C1CCCCC1 (centres undefined): 29

IN: Param item = CCC(=O)c1cccc2ccccc12 ; retrieve measured growth inhibition.
OUT: 0

IN: Param item = O=[N+]([O-])c1cc(CCl)ccc1CCl ; retrieve measured growth inhibition.
OUT: 97

* * *

Test: NCI Yeast Anticancer Drug Screen. Data for the sgs1 mgt1 strain (AID 161);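 further: 0% = growth of cultures given vehicle only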
Details: S. cerevisiae sgs1 mgt1 strain, at 50.0 µM (retest, dose inferred, filed as 5.0), stronger effect = higher value
About 79,000 compounds went through this panel and 15% of them were active in at least one assay; those are over-represented in the sample as a whole.
growth inhibition below 20% gives Criterion not met; growth inhibition at or above it gives Criterion met.

CC[C@@]1(O)C(=O)OCc2c1cc1n(c2=O)Cc2cc3c(N)cccc3nc2-1: Criterion not met
c1ccc2c(c1)C(=NCCCN1CCCCCC1)c1cccn1-2: Criterion not met
C[C@@H]1C[C@H]2[C@@H]3CCC4=CC(=O)C=C[C@]4(C)[C@@]3(Cl)[C@@H](Cl)C[C@]2(C)[C@@]1(O)C(=O)COP(=O)(O)O: Criterion not met

IN: Identify whether the reported growth inhibition of the following molecule is 20% or greater: O=C(O)C1CCCCC1c1c2ccc(=O)c(O)c-2oc2c(O)c(O)ccc12 (centres undefined)
OUT: Criterion met

IN: Identify whether the reported growth inhibition of the following molecule is 20% or greater: COc1cc2c(c(OC)c1OC)-c1c(cc3c(c1OC)OCO3)CC(C)C(C)(O)C2OC(=O)c1ccccc1 (centres undefined)
OUT: Criterion met

IN: Identify whether the reported growth inhibition of the following molecule is 20% or greater: C(=C\c1ccccc1)/COc1ccccc1C(N1CCOCC1)n1nc2ccccc2n1 (centres undefined)
OUT: Criterion met

IN: Identify whether the reported growth inhibition of the following molecule is 20% or greater: O=CNc1ccc2c(c1)C(=O)c1ccccc1-2
OUT: Criterion met

IN: Identify whether the reported growth inhibition of the following molecule is 20% or greater: CCOC(=O)c1cnc2c(C(F)(F)F)cccc2c1N=[N+]=[N-]
OUT: Criterion met

* * *

Catalogue of growth inhibition values
Assay: NCI Yeast Anticancer Drug Screen. Data for the sgs1 strain (AID 173);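 further: 0% = growth of vehicle-only control cultures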
Conditions: S. cerevisiae sgs1 mutant, at 1.2 µM, stronger effect = higher value
This is part of a sample that, as a whole, favours compounds with a hit. Of some 79,000 tested, about 15% had one in any assay.
# number only, unit % dropped from output

O=C(O)c1cccc(-c2c3ccc(=O)cc-3oc3cc(O)ccc23)c1: 16

IN: Param item = Cc1ccc(NC(=O)/C(Cl)=C(\Cl)C(=O)O)cc1C ; retrieve measured growth inhibition.
OUT: 1

IN: Param item = O=[N+]([O-])c1ccc2nc3ccccc3cc2c1 ; retrieve measured growth inhibition.
OUT: -2

IN: Param item = Brc1ccc(-c2cc3c(cc2C2SCCS2)OCO3)cc1 ; retrieve measured growth inhibition.
OUT: 3

IN: Param item = Cn1c2ccccc2c(=O)c2cc(NC(=O)CCCCC(=O)Nc3ccc4c(c3)c(=O)c3ccccc3n4C)ccc21 ; retrieve measured growth inhibition.
OUT: -5

IN: Param item = COC(=O)C1=C(C)NC(C)=C(C(=O)OC)C1c1cccc(/[N+]([O-])=C/c2ccccc2)c1 ; retrieve measured growth inhibition.
OUT: 1

IN: Param item = O=C(NCCCNCCCNC(=O)c1cc(-c2ccccc2)nc2ccccc12)c1cc(-c2ccccc2)nc2ccccc12 ; retrieve measured growth inhibition.
OUT: -3

IN: Param item = COc1cc(C2C3=C(COC3=O)Oc3cc4c(cc32)OCO4)ccc1O (centres undefined) ; retrieve measured growth inhibition.
OUT: -4

IN: Param item = COC(=O)c1ccc([N+](=O)[O-])c(O)c1 ; retrieve measured growth inhibition.
OUT: 22

IN: Param item = CN(C)c1nc2sc3c(c2c(=O)o1)CCCC3 ; retrieve measured growth inhibition.
OUT: -3

* * *

Experiment: NCI Yeast Anticancer Drug Screen. Data for the rad52 strain (AID 147);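 further: 0% = growth of vehicle-treated control cultures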
Conditions: S. cerevisiae rad52 mutant growth inhibition; at 1.2 µM; stronger effect = higher value
This is part of a sample that, as a whole, favours compounds with a hit. Of some 79,000 tested, about 15% had one in any assay. The source made the active and inactive calls. Rule as the data show it: active = growth inhibition above about 70%; inactive = the rest.
REPORTED_ENDPOINT: growth inhibition

c1ccc(-c2nc3cccnc3s2)cc1: 1% (inactive)
NC(=O)NN=C(CS)CS: -1% (inactive)
COC(=O)CCNc1c2ccccc2nc2cccc([N+](=O)[O-])c12: 97% (active)
O=C1CSc2cc([N+](=O)[O-])ccc2N1: 10% (inactive)
CN1Cc2ccccc2/C=C\c2ccccc21: -3% (inactive)

IN: Param item = CCN(CC)CCNc1ccc([N+](=O)[O-])c2nc3ccc(OC)cc3c(N)c12 ; retrieve measured growth inhibition.
OUT: -23% (inactive)

IN: Param item = COC(=O)C1=C(C(=O)OC)C2(C)C=CC1O2 (stereo unspecified) ; retrieve measured growth inhibition.
OUT: -1% (inactive)

IN: Param item = Cc1cc(S(=O)(=O)/N=C(/NN)NNc2cccc(C(F)(F)F)n2)c(S)cc1Cl ; retrieve measured growth inhibition.
OUT: 1% (inactive)

IN: Param item = OC1CCCc2c1cc1ccc3cccc4ccc2c1c34 (stereo unspecified) ; retrieve measured growth inhibition.
OUT: -7% (inactive)

IN: Param item = CCOC(=O)C(NC(=O)c1ccccc1)(N1CCN(c2cc3c(cc2F)c(=O)c(C(=O)O)cn3C2CC2)CC1)C(F)(F)F (stereo unspecified) ; retrieve measured growth inhibition.
OUT: -1% (inactive)

IN: Param item = CNC(=O)OCc1c(COC(=O)NC)c(-c2ccc(Cl)c(Cl)c2)n2c1CCC2 ; retrieve measured growth inhibition.
OUT: -21% (inactive)

* * *

Assay: NCI Yeast Anticancer Drug Screen. Data for the sgs1 mgt1 strain (AID 161);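 further: 0% = growth of cultures given vehicle only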
Conditions: S. cerevisiae sgs1 mgt1 strain, at 50.0 µM, stronger effect = higher value
About 79,000 compounds went through this panel and 15% of them were active in at least one assay; those are over-represented in the sample as a whole.
Catalogue of growth inhibition values
# number only, unit % dropped from output

O=C(Nc1ccc(Cl)cc1)OCC#CCCl: 96.7
COP(=O)(OC)/C(=C\C1=CN(C(c2ccccc2)(c2ccccc2)c2ccccc2)CN1)NC=O: 98.3
CNC(=O)OCc1c(COC(=O)NC)c(-c2ccc(Cl)c(Cl)c2)n2c1CCC2: 78.5
O=C([O][Sn]([O]C(=O)c1ccccc1)([c]1ccccc1)[c]1ccccc1)c1ccccc1: 56.4

IN: Param item = CC(C)/C(Cl)=N\OC(=O)Nc1cccc(Cl)c1 ; retrieve measured growth inhibition.
OUT: 85.2

IN: Param item = CC(C)c1cc(C(C)C)c(O)c(C([O-])[O-])c1.CC(C)c1cc(C(C)C)c(O)c(C([O-])[O-])c1.CC(C)c1cc(C(C)C)c(O)c(C([OH2+])[OH2+])c1.CC(C)c1cc(C(C)C)c(O)c(C([OH2+])[OH2+])c1.[Cu+2].[Cu+2].[OH3+].[OH3+] ; retrieve measured growth inhibition.
OUT: 43

IN: Param item = Cc1cc(N=Nc2ccc(S(=O)(=O)[O-])cc2)cc(C(=O)[O-])c1[O-].NC1CCCCC1N.[Na+].[Pt+4] ; retrieve measured growth inhibition.
OUT: 92

IN: Param item = Oc1c(Br)cc(Br)cc1C1CCCCC1 ; retrieve measured growth inhibition.
OUT: 91.8

* * *

Test: NCI Yeast Anticancer Drug Screen. Data for the rad50 strain (AID 155);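 further: 0% = growth of vehicle-only cultures of the same strain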
Conditions: S. cerevisiae rad50 strain growth inhibition; at 3.7 µM; stronger effect = higher value
This is part of a sample that, as a whole, favours compounds with a hit. Of some 79,000 tested, about 15% had one in any assay.
Catalogue of growth inhibition values
# number only, unit % dropped from output

Example cases with answers are listed next.
Cc1ccc(Cl)c2[nH]c(-c3ccccc3)cc(=O)c12: 0
COc1cc(/C=C2\CCc3ccccc3C2=O)cc(OC)c1OC: -3
C#CCCCc1ccccc1: -45
N/C(=N\OC(=O)NC(Cl)=C(Cl)Cl)c1cc(C(F)(F)F)cc(C(F)(F)F)c1: -20
CC1(Cl)CC(O)C2(CC1Br)C1(C)OC1C1OC1(Br)C2(C)C (stereo unspecified): -12

Then there is this compound:
IN: Param item = Cc1ccc(Nc2nc3c(=O)n(C)c(=O)n(C)c3nc2Nc2ccc(C)cc2)cc1 ; retrieve measured growth inhibition.
OUT: 1
